- Tested on: EKVX NSCLC
- ASSAY PROCEDURE: NCI-60 one-dose screen, 48 h (100 = growth as untreated, 0 = no growth, -100 = all killed)
- PARTICULARS: 10 µM unless noted
About 83,000 compounds went through this panel and 20% of them were active in at least one assay; those are over-represented in the sample as a whole.
A collection of compounds and their measured growth
Express it in %; write the number only.

smiles_data=COc1ccc2[nH]c(O)c(N=NC(=O)c3ccc4nc(-c5ccc(Cl)cc5)[nH]c4c3)c2c1 measure=growth val=90.1
smiles_data=COc1ccc2[nH]c(=O)c(CSc3ccccc3Nc3nccc(-c4ccc(C(F)(F)F)cc4)n3)cc2c1 measure=growth val=54.3
smiles_data=COc1ccc2[nH]c(=O)cc(-n3ncc(C(=O)/C=C/c4cc(OC)c(OC)c(OC)c4)c3C)c2c1 measure=growth val=11
smiles_data=COc1ccc(NC(=O)Nc2nc3ccc([N+](=O)[O-])cc3s2)cc1 measure=growth val=9.23
smiles_data=COc1ccc2[nH]cc(-c3cc(N)n4nc(-c5c[nH]c6ccccc56)cc4n3)c2c1 measure=growth val=10.9

# ---- query compound ----
The reported growth value, EKVX NSCLC, for O=CNc1ccc(-n2cnc3cc(-c4ccc(O)cc4)ccc32)cc1 reads 106

----------
- Test system: NCI-H226 lung
- ASSAY PROCEDURE: NCI-60 one-dose screen, 48 h
- PARTICULARS: 10 µM unless noted
This is part of a sample that, as a whole, favours compounds with a hit. Of some 83,000 tested, about 20% had one in any assay. The source made the active and inactive calls. How the source made its calls: active means growth percent below 10; inactive means the rest.
Would you mind answering with one of these outcomes? Yes for active, No for inactive

Take a look at these entries with their results.
molecule=O=C(CSc1nc2sc3c(c2c(=O)n1-c1ccc(Cl)cc1)CCCC3)NNC(=O)c1ccc(Br)cc1 target_of_assay="NCI-H226 lung" discrete_label=No
molecule=CCc1ccccc1-c1nc(CN[C@@H]2C[C@@H]3C[C@H]([C@H]2C)C3(C)C)c(C)o1 target_of_assay="NCI-H226 lung" discrete_label=Yes
molecule="Cc1cc(=O)oc2cc(OCC(O)CNN3C(=O)c4cccc5c(N6CCN(C)CC6)ccc(c45)C3=O)ccc12 (stereo not given)" target_of_assay="NCI-H226 lung" discrete_label=No
molecule=Cc1ccc(C(=O)Nc2cc(-c3ccccc3)cc(C(F)(F)F)c2)cc1C#Cc1cnc2cccnn12 target_of_assay="NCI-H226 lung" discrete_label=No
molecule="Cc1ccc(C2CC(c3ccc(NC(=O)Nc4ccccc4)cc3)=NN2c2ccc(S(N)(=O)=O)cc2)cc1 (stereo not given)" target_of_assay="NCI-H226 lung" discrete_label=Yes
molecule=O=C(Cc1c(-c2cccc([N+](=O)[O-])c2)n(-c2ncnc3c2c(-c2ccccc2)c(-c2ccccc2)n3Cc2ccccc2)[nH]c1=O)c1ccc(Cl)c(Cl)c1 target_of_assay="NCI-H226 lung" discrete_label=No
molecule=COc1ccc(N=Nc2c(N)nn3c(-c4ccc(OC)c(OC)c4)ccnc23)cc1 target_of_assay="NCI-H226 lung" discrete_label=No
molecule=COc1cccc2nc(Nc3cccc(NC(=O)c4ccc(CN5CCN(C)CC5)c(C(F)(F)F)c4)c3)ccc12 target_of_assay="NCI-H226 lung" discrete_label=Yes

*Q* Call for entry O=C(CSc1nnc(-c2ccc(-c3nc4ccc(Cl)cc4[nH]3)cc2)o1)Nc1ccc(Cl)cc1 :
*A* Yes

*Q* Call for entry Nc1cc(-c2c[nH]c3ccc(F)cc23)nc2cc(-c3c[nH]c4ccccc34)nn12 :
*A* No

*Q* Call for entry Cc1ccc(C(=O)C[n+]2cccc3c4ccccc4ccc32)cc1 :
*A* No

*Q* Call for entry Cc1nn(-c2ccccc2)c2nc(C)n(CC(=O)N/N=C/c3ccccc3O)c(=O)c12 :
*A* No

*Q* Call for entry Nc1cc(-c2c[nH]c3ccc(Br)cc23)nc2cc(-c3c[nH]c4ccccc34)nn12 :
*A* Yes

*Q* Call for entry OC(c1ccccc1)(c1ccccc1)C1CCN(c2ccc3nnc(Cl)n3n2)CC1 :
*A* No

*Q* Call for entry Cc1nn(-c2ccccc2)c2nc(C)n(C(=O)N/N=C/c3ccccc3)c(=O)c12 :
*A* No
